Numbers sourced from patent US20260258115A1.

- study-system: RSV prefusion F (preF), subtype B (respiratory syncytial virus, subtype B)
- protocol-notes: BLI, IgG
pKd: −log10 of the molar value.
measured-metric: pKd

binder	value-measured
ADI-14415 (antibody, V domains shown, also called Ab 81) VH: EVQLVESGPGLVKPSETLSLTCTVSGGSISNYYWTWIRQPPGEGLEWIGYIYYTGSTNYNPSLKNRVTISVDTPKNQFSLKLNSVTAADTAVYYCARGWGYSYGYESYYNGLDVWGQGTTVTVSS VL: DIQLTQSPSFLSASVGDRVTITCRASQGISSYLAWYQLKPGKAPKLLIYAAATLETGVPSRFSGSGSGTEFTLTISGLQPEDFATYYCQQLNSFPFTFGPGTKVEIK	8.45
ADI-21014 (antibody, V domains shown) VH: QVQLQESGPGLVKPSETLSLICTVSGGSISNYYWSWIRQPPGKGLEWIGYVWFGTTKYNPSLKNRVTISVDTGKNQVSLKVNSVTAADTAIYYCARDSSIWYRGAFEIWGQGTTVTVSS VL: DIRLTQSPSSLSASVGDRVTITCQASQDISNHLNWYQQRPGKAPELLIYDASTLETGGPSRFSGSGSGTDFTLTISSLQPEDFADYYCQQYDNLPVTFGGGTKVDIK	9.42
ADI-21000 (antibody, V domains shown) VH: EVQLVESGPVLVKPRGTLTLTCTVSGFSLSDARMGVSWIRQPPGKALEWLAHIFWDDEKSYSTSLKNRLTISKDTSRGQVVLRMTNMDPVDTGTYFCARVNTYHSGGYYLYYFDVWGQGTLVTVSS VL: EIVLTQSPSSLSASVGDRVTITCRASQIIASYLNWYQQKPGQAPKLLIYAASSLQSGVPSRFSGSGSGTDFTLTISSLQPEDFATYYCQQSYSTRMYTFGQGTKVEIK	8.89
